Provide the reported IC50 of each item.
- measuredOn: Human immunodeficiency virus type 1 protease (Human immunodeficiency virus 1)
- assayOverview: Inhibitory concentration against human immunodeficiency virus 1 protease in MT-4 cells
Give bare numbers, in nM.

Some solved entries appear below for comparison.
| compound | unitLabel | val |
| --- | --- | --- |
| CCCC1(CCc2ccccc2)CC(=O)C(C(CC)c2ccccc2)=C(O)O1 (stereo not drawn) | nM | 35 |
| Cc1ccc(C(C)(C)C)c(SC2=C(O)OC(CCc3ccccc3)(C(C)C)CC2=O)c1 (stereo not drawn) | nM | 1.1 |

Now for a further compound.
Sample CCC(c1ccccc1)c1c(O)c2ccccc2oc1=O (stereo not drawn) — what was its IC50?
1000
